Reference source for all entries: paper PMC5540273

Reported %Inh is given for each of the following compounds.
Test system: EPHA4
Conditions: concentration: 1 μM, replicates: in singlicate; n = 1;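 note: KINOMEscan kinase panel screen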
Could you give me the number in %? Just the number is fine.

Some solved entries appear below for comparison.
1) CCCCCc1nc2c(N)ncnc2n1CCCCC [SKF-97255] ... 10
2) O=C(NOCC1CC1)c1ccc(F)c(F)c1Nc1ccc(I)cc1Cl ... 0

Field: next compound
Q: Any idea what %Inh was measured for O=C(NCCNc1ccnc(Nc2ccc(F)cc2)n1)c1cc2ccccc2s1 [GSK1379874] ?
A: 0

====

Reported %Inh is given for each of the following compounds.
System: AXL
Conditions: concentration: 1 μM, replicates: in singlicate; n = 1
Could you give me the number in %? Just the number is fine.

Some solved entries appear below for comparison.
1) CCCCCc1nc2c(N)ncnc2n1CCCCC ... 0
2) COc1ccc(Nc2nccc(N3CCC(NC(=O)Nc4cccc(C(C)=O)c4)C3)n2)cc1 (stereo not drawn) ... 9

Field: next compound
Q: Any idea what %Inh was measured for Cc1c2ccc(N(C)c3ccnc(Nc4cccc(S(N)(=O)=O)c4)n3)cc2nn1Cc1ccccc1.Cl.Cl ?
A: 73

====

Tested on: TBK1
Conditions: concentration: 1 μM, replicates: in singlicate; n = 1
Property Label: %Inh (%)
Could you give me the number in %? Just the number is fine.

Some solved entries appear below for comparison.
1) O=c1cc(N2CCOCC2)nc2n(Cc3cccc(Cl)c3Cl)c(C3CC3)nn12 [GSK2358994] ... 26
2) CN1c2ccc(NCc3ccc(F)cc3)cc2-c2c(cnn2C)S1(=O)=O ... 0
3) COCCNC(=O)c1ccc(-c2cc(C(=O)NC3CC3)cc(F)c2C)cc1 [GW868318] ... 34
4) COc1cc(Nc2nccc(N3CCC(NC(=O)c4cccc(NC(C)=O)c4)C3)n2)cc(OC)c1OC (stereo not shown) [GSK1379754] ... 17
5) O=C(c1ccc(-c2cc(-c3c[nH]nc3-c3ccccn3)ccn2)cc1)N1CCOCC1 [GW812171] ... 31

Q: Any idea what %Inh was measured for O=c1cc(N2CCOCC2)nc2n(Cc3cccc4ccccc34)ccn12 [GSK2333389] ?
A: 0

Q: Any idea what %Inh was measured for COc1ccc(Nc2nccc(N3CCC(NC(=O)Nc4cc(C)ccc4C)C3)n2)cc1 (stereo not shown) [GSK1379741] ?
A: 0

Q: Any idea what %Inh was measured for Cc1cccc(Cn2ccn3c(=O)cc(N4CCOCC4)nc23)c1 [GSK2297542] ?
A: 10

Q: Any idea what %Inh was measured for c1ccc(-c2cc(-c3c[nH]nc3-c3ccccn3)ccn2)cc1 [GW576604] ?
A: 5

Q: Any idea what %Inh was measured for Cn1ccc2ncnc(Oc3ccc(NC(=O)Nc4ccncc4)c(Cl)c3)c21 ?
A: 22

Q: Any idea what %Inh was measured for Nc1nccc(-c2c(-c3ccc(F)cc3)ncn2C2CCN(CC(F)(F)F)CC2)n1 [SB-236560] ?
A: 0

Q: Any idea what %Inh was measured for c1ccc(-c2n[nH]cc2-c2ccnc3ccccc23)nc1 [GW271431] ?
A: 12

Q: Any idea what %Inh was measured for NS(=O)(=O)c1cccc(-c2ccc3ncc(N4CCOCC4)nc3c2)c1 [GSK1535721] ?
A: 17

Q: Any idea what %Inh was measured for Cc1nnc(-c2ccc3ncc(-c4ccc(S(C)=O)cc4)n3c2)o1 (stereo not shown) ?
A: 15

====

Tested on: MET
Details: concentration: 1 μM, replicates: in singlicate; n = 1
Reported %Inh is given for each of the following molecules.
Could you give me the number in %? Just the number is fine.

1) c1ccc(-c2cc(-c3c[nH]nc3-c3ccccn3)ccn2)cc1 ... 13
2) Cc1cn2c(=O)cc(N3CCOCC3)nc2n1Cc1cccc(Cl)c1Cl ... 0
3) COCCNC(=O)c1ccc(-c2cc(C(=O)NC3CC3)cc(F)c2C)cc1 ... 0
4) NS(=O)(=O)c1cccc(-c2ccc3nccc(-c4cccc(S(N)(=O)=O)c4)c3c2)c1 ... 0

Field: next molecule
Q: Any idea what %Inh was measured for O=C(c1ccc(-c2cc(-c3c[nH]nc3-c3ccccn3)ccn2)cc1)N1CCOCC1 ?
A: 0

====

Tested on: WNK4
Conditions: concentration: 1 μM, replicates: in singlicate; n = 1
Property Label: %Inh (%)
Could you give me the number in %? Just the number is fine.

Some solved entries appear below for comparison.
1. Cn1cc(-c2ccc3c(c2)CCN3C(=O)Cc2ccccc2Cl)c2c(N)ncnc21 [GSK2608885] ... 25
2. NS(=O)(=O)c1cccc(-c2ccc3ncc(N4CCOCC4)nc3c2)c1 [GSK1535721] ... 16
3. c1ccc(-c2cc(-c3c[nH]nc3-c3ccccn3)ccn2)cc1 [GW576604] ... 11
4. COC(=O)Nc1nc2cc(Oc3ccc(NC(=O)Nc4cc(F)ccc4F)cc3)ccc2[nH]1.Cl [GW701424] ... 58
5. Cc1cccc(-c2nc(Nc3ccc4ncsc4c3)c3ccccc3n2)n1 [GW867588] ... 0

Q: Any idea what %Inh was measured for O=c1cc(N2CCOCC2)nc2n(Cc3cccc(Cl)c3Cl)c(C3CC3)nn12 [GSK2358994] ?
A: 0

Q: Any idea what %Inh was measured for CN1c2ccc(NCc3ccc(F)cc3)cc2-c2c(cnn2C)S1(=O)=O ?
A: 0

====

Tested on: CAMKK2
Details: concentration: 1 μM, replicates: in singlicate; n = 1
Property Label: %Inh (%)
Could you give me the number in %? Just the number is fine.

Some solved entries appear below for comparison.
1. c1ccc(-c2cc(-c3c[nH]nc3-c3ccccn3)ccn2)cc1 [GW576604] ... 24
2. COc1ccc(Nc2ncc(C#N)c(Nc3ccccc3C(N)=O)n2)cc1N1CCN(C)CC1.Cl [GSK1558669] ... 98.5
3. Cc1ccc(C(=O)NCC(N)=O)cc1-n1c(C)cc(OCc2ccc(F)cc2F)c(Br)c1=O ... 0
4. CCc1ccnc(/C=C/c2n[nH]c3cc(Sc4ccccc4C(=O)NC)ccc23)c1 ... 11

Q: Notebook entry, CAMKK2 assay: %Inh of NS(=O)(=O)c1cccc(-c2ccc3nccc(-c4cccc(S(N)(=O)=O)c4)c3c2)c1 [GW867253] = ?
A: 19

Q: Notebook entry, CAMKK2 assay: %Inh of O=c1cc(N2CCOCC2)nc2n(Cc3cccc(F)c3)ccn12 [GSK2297430] = ?
A: 3

Q: Notebook entry, CAMKK2 assay: %Inh of Fc1ccc(-c2ncn(CCCN3CCOCC3)c2-c2ccccn2)cc1 [SB-211742] = ?
A: 19

Q: Notebook entry, CAMKK2 assay: %Inh of N#Cc1ccc(-c2cc(-c3c[nH]nc3-c3ccccn3)ccn2)cc1 [GW693028] = ?
A: 2

Q: Notebook entry, CAMKK2 assay: %Inh of O=C1NC(=O)C(N2CCc3ccccc32)=C1c1cccc(Cl)c1 [SB-408010] = ?
A: 0

====

Tested on: EGFR
Settings: concentration: 1 μM, replicates: in singlicate; n = 1
Property Label: %Inh (%)
Could you give me the number in %? Just the number is fine.

1. O=C1NC(=O)C(N2CCc3ccccc32)=C1c1cccc(Cl)c1 [SB-408010] ... 0

Q: Any idea what %Inh was measured for CCn1cnc2c(N)ncnc21 [GW345098] ?
A: 15

Q: Any idea what %Inh was measured for Fc1ccc(-c2ncn(CCCN3CCOCC3)c2-c2ccccn2)cc1 [SB-211742] ?
A: 12

Q: Any idea what %Inh was measured for Cc1cccc(Cn2ccn3c(=O)cc(N4CCOCC4)nc23)c1 [GSK2297542] ?
A: 22

Q: Any idea what %Inh was measured for NCC(NC(=O)c1cc(-c2cn[nH]c2)c(-c2ccnc3[nH]ccc23)s1)c1ccccc1.O=C(O)C(F)(F)F.O=C(O)C(F)(F)F (centres unmarked) [GSK1325775] ?
A: 4

====

Test system: SRC
Settings: concentration: 1 μM, replicates: in singlicate; n = 1
Property Label: %Inh (%)
Could you give me the number in %? Just the number is fine.

Some solved entries appear below for comparison.
1. N#Cc1c(N2CCOCC2)sc(-c2ccn[nH]2)c1-c1ccc(Cl)cc1 ... 0
2. COC(=O)Nc1nc2cc(Oc3ccc(NC(=O)Nc4cc(F)ccc4F)cc3)ccc2[nH]1.Cl [GW701424] ... 0

Q: Any idea what %Inh was measured for CN(C1=C(c2ccccc2)C(=O)NC1=O)c1ccccc1 [SB-334860] ?
A: 5

Q: Any idea what %Inh was measured for Fc1ccc(-c2ncn(CCCN3CCOCC3)c2-c2cccnc2)cc1 [SB-211743] ?
A: 0

Q: Any idea what %Inh was measured for CNc1ncnc2[nH]ncc12 [SKF-18355] ?
A: 17

Q: Any idea what %Inh was measured for CN1c2ccc(CNc3ccc(F)cc3)cc2-c2c(cnn2C)S1(=O)=O ?
A: 0

Q: Any idea what %Inh was measured for O=c1cc(N2CCOCC2)nc2n(Cc3cccc4ccccc34)ccn12 [GSK2333389] ?
A: 0

Q: Any idea what %Inh was measured for O=C(Nc1cccc(-c2nn3ncccc3c2-c2ccnc(Nc3cccc(C(F)(F)F)c3)n2)c1)c1c(F)cccc1F [GSK299495] ?
A: 56
